The reader will find reported glycan array binding signal (z-score) values listed item by item below.
study.system: Neu5Ac(a2-6)GlcNAc(b1-4)GlcNAc(b1-4)GlcNAc
measurement.protocol: glycan array binding signal (z-score within array); higher = stronger binding
test.conditions: glycan notation: IUPAC condensed, linker removed
This excerpt belongs to a sample that is enriched for the strongest signals.
Lab note: write the figure by itself, no unit.

[
  {
    "binder": "FimA-N2 (Actinomyces oris) (protein) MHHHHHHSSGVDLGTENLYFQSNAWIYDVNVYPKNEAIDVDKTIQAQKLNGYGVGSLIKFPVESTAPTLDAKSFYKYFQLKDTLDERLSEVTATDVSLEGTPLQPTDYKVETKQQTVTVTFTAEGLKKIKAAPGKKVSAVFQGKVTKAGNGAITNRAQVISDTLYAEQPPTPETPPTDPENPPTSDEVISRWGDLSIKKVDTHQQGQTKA",
    "measured.endpoint": "glycan array binding signal (z-score)",
    "numeric.result": 0.675
  }
]

Proceeding to the next binder to report its glycan array binding signal (z-score).
// query glycan array binding signal (z-score) value for entry Na-CTL-1 (Necator americanus) (protein) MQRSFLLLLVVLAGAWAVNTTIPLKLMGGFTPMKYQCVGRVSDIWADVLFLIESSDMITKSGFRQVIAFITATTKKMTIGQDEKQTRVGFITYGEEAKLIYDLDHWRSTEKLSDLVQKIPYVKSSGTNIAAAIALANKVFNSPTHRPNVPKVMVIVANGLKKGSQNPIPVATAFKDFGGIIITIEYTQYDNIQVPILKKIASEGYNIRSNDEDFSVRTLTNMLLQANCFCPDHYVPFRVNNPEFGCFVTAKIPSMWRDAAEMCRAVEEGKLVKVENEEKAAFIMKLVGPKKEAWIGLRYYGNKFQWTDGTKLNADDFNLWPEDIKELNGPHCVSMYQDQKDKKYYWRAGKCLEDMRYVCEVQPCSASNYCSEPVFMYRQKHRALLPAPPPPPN
1.95

FYI, the data here is from the supplement of paper PMC8728848.
